Reference source for all entries: paper PMC6767919

# target_entity: human 5-HT2C–INI (wild-type, WT) receptor (Homo sapiens)
# Sequence (P28335 33-458): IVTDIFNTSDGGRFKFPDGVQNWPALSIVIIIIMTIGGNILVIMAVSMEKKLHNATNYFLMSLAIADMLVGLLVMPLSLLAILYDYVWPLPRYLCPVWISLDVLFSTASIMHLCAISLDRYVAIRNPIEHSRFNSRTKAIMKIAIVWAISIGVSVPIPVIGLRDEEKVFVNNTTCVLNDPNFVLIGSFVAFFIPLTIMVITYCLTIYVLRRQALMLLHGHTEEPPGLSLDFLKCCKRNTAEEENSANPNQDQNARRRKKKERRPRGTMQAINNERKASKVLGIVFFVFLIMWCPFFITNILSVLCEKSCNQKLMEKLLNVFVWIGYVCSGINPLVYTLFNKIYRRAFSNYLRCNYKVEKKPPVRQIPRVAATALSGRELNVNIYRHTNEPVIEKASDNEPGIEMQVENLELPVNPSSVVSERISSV
# Assay type: cell-based
metric_name: agonist efficacy class relative to 5-HT, IP production

> print(dat)
                                   molecule  value.measured
1            C[C@H](N)Cn1ccc2cc(F)c(Cl)cc21   full agonists
2  O=C1Nc2cc(Cl)c(Cl)cc2N2CCNCC12 (stereo not shown)   full agonists
3  COc1cc(CC(C)N)c(OC)cc1I (racemic) [DOI, (±) 2,5-dimethoxy-4-iodoamphetamine]   full agonists
